Tested on: ncRNAs (SEQ ID NO 28-89)
Assay: ncRNA arrays of melanocytes, keratinocytes, normal skin, melanoma cell lines and patient samples
Parameters: species or system human
Conditions: melanoma patient 20 sample compared to normal skin
Hi there, I'd appreciate the recorded ncRNA array expression, patient 20 for every entry that follows.
Numbers only.

Some substances with known ncRNA array expression, patient 20 results, for comparison:
For the substance shown here, SEQ ID NO 63 (CTCACACGCACCCTTTCACTGTTTCTTAGTAATTTGTTTGTCTACAGACACAGACGGGAA; listed as DNA, chemistry not given here; listed as Homo sapiens) , give the reported ncRNA array expression, patient 20.
−1.232

Then this substance: SEQ ID NO 46 (CTATTGGAGTGCATATAAATTCTTGATAGCACCAGTTCTCAAATATGAGGTGTTAAAAAC; listed as DNA, chemistry not given here; listed as Homo sapiens)
0.395

Another substance: SEQ ID NO 84 (TTATTAAAAGGACTGAGGATCATGTGTGTTGGTGTGTCCCGGAGTCTGCTCTAAGGTAAA; listed as DNA, chemistry not given here; listed as Homo sapiens)
1.668

Record: SEQ ID NO 40 (GTTAAAGACTAAATTAGTGATTTGGGAGATCAAGCCAATGGGCTTGTCTAAAACCTAGTC; listed as DNA, chemistry not given here; listed as Homo sapiens)
0.9994

Thanks! And SEQ ID NO 85 (TGAGGGGAGAGGGGATGGGAAACATTAGGGCTGGGTTCATGTAAAGGGACCAGCATTGTG; listed as DNA, chemistry not given here; listed as Homo sapiens) ?
−3.4136

# batch size: 7; output ncRNA array expression, patient 20 per entry
1. SEQ ID NO 38 (GTAAACAAGGTCTCACAAAAACAGCTGACCACACCATAAAATCACTGAGACCGAGCCTGC; listed as DNA, chemistry not given here; listed as Homo sapiens)
2. SEQ ID NO 36 (TATTTGTGACTAACTGTATAACAGGTTATTTTAGTTTCTGTTCTGTGGGAAGTGTAAAGC; listed as DNA, chemistry not given here; listed as Homo sapiens)
3. SEQ ID NO 77 (AAGTTTCCACGGCAGGTTCTCGTAGCACCTTTGGTCAAGAACTGAAGGGGCCTTTAGATG; listed as DNA, chemistry not given here; listed as Homo sapiens)
4. SEQ ID NO 78 (ATGGAAAGGCCAGGGGAGGGTGGAGCTCAGGAGTGGAAGCACAGGGACTAAGGCCTGAGC; listed as DNA, chemistry not given here; listed as Homo sapiens)
5. SEQ ID NO 44 (AGCCAACTCACGCTTAGGGAGAACTCATACCGCCTAAATATAAAGGCAATTATATATATA; listed as DNA, chemistry not given here; listed as Homo sapiens)
6. SEQ ID NO 88 (CTGTTGCTTATTCTGGGAGCCCAATCCTAGGCTGAGGGAGGTGGGCGCGGGGCTGTTTAA; listed as DNA, chemistry not given here; listed as Homo sapiens)
7. SEQ ID NO 59 (TGTGCAGCAGTATCAAAGGTCCTTAAATTCTCAACAATGAAGGAAAAACAAAAACCCATT; listed as DNA, chemistry not given here; listed as Homo sapiens)

["−0.9285", 4.669, "−1.526", "−3.82", "−1.651", "−1.6443", "−1.14"]

// each substance listed below needs its ncRNA array expression, patient 20
1. SEQ ID NO 65 (CACCGTTTTACTTTTTGTGGGGAGGGGAAGCAGTATCAAAATTTCTTCGGGCGCCAGAAC; listed as DNA, chemistry not given here; listed as Homo sapiens)
2. SEQ ID NO 50 (GTTATTATAACCAATGCAGACTTTAAAATCCCACCTGGACATCGGGTGAGAGGAGGAGGG; listed as DNA, chemistry not given here; listed as Homo sapiens)
3. SEQ ID NO 89 (GGACACAGAGAGTCATGCACCAGCCCAGTGAGAACCAATTCAGAGCCAAATGCCAAACCC; listed as DNA, chemistry not given here; listed as Homo sapiens)
4. SEQ ID NO 35 (GTTTCCATTGAAGAATATTACGCTCGGGGACAAGCCAGGTGCACGACCAAAAATTTAAAA; DNA, backbone and methylation of C not given here; listed as Homo sapiens)
5. SEQ ID NO 45 (ATTTAGAGAACATTTAAATCTGTAAGGAAGAAAATAATAACGACTCACAATTACATCATT; listed as DNA, chemistry not given here; listed as Homo sapiens)
6. SEQ ID NO 66 (TCCTTTTTATCTTGCACTCAGATGGTATTTTTAGAGATGTTTCTTCAATCAAAACAAGAT; listed as DNA, chemistry not given here; listed as Homo sapiens)
7. SEQ ID NO 54 (TTTTTTTTCTTGTCCTATTACAACATTTTATAACCTTATGAATCAATGGATACTTTTATT; listed as DNA, chemistry not given here; listed as Homo sapiens)

1: −1.283; 2: −1.776; 3: −0.7949; 4: 2.507; 5: −1.797; 6: 2.462; 7: 1.876
